These data points were gathered from patent US10273237B2.

For each entry below, report its pIC50 value.
# Tested on: IFNα-stimulated Kit225 T cells with STAT-dependent luciferase reporter
# ASSAY_INFO: Kit225 T cell assay, STAT-dependent luciferase reporter, IFNα stimulated
# Format: cell-based, human
# EXPERIMENTAL_CONTEXT: 200 U/mL human recombinant IFNα, 5-6 hours, read-out: IFNa Kit225 Reporter, LE (IC50)
Give bare numbers, as −log10 of the molar value.

Solved entries (count: 10):
Query :: What value of pIC50 has been reported for the following compound? `CNc1cc(Nc2cccn(-c3ccc(F)cc3)c2=O)nn2c(C(=O)NC3CC3)cnc12`
Result :: 6.92

Query :: What value of pIC50 has been reported for the following compound? `CNc1cc(Nc2cccn(-c3cccc(C)n3)c2=O)nn2c(C(=O)N[C@@H]3C[C@@H]3F)cnc12`
Result :: 7.30

Query :: What value of pIC50 has been reported for the following compound? CNc1cc(Nc2cccn(-c3ccc(C(C)O)cc3)c2=O)nn2c(C(=O)NC3CCC3)cnc12 (stereo not shown)
Result :: 7.05

Query :: What value of pIC50 has been reported for the following compound? `CNc1cc(Nc2cccn(-c3ccc(C)nn3)c2=O)nn2c(C(=O)N[C@@H]3C[C@@H]3F)cnc12`
Result :: 7.40

Query :: What value of pIC50 has been reported for the following compound? `CNc1cc(Nc2cccn(-c3ccc(F)cn3)c2=O)nn2c(C(=O)NC3CC3)cnc12`
Result :: 7.00

Query :: What value of pIC50 has been reported for the following compound? `CNc1cc(Nc2cccn(-c3ccc(C#N)cc3)c2=O)nn2c(C(=O)NC3(C#N)CC3)cnc12`
Result :: 6.64

Query :: What value of pIC50 has been reported for the following compound? CNc1cc(Nc2cccn(-c3ccccc3)c2=O)nn2c(C(=O)NC3CCC(O)C3(C)C)cnc12 (stereo not shown)
Result :: 6.40

Query :: What value of pIC50 has been reported for the following compound? `CNc1cc(Nc2cccn(-c3ccccn3)c2=O)nn2c(C(=O)N[C@@H]3CCOC3)cnc12`
Result :: 6.57

Query :: What value of pIC50 has been reported for the following compound? CNc1cc(Nc2cncn(-c3cccc(C(C)O)n3)c2=O)nn2c(C(=O)NC3CCC3)cnc12 (racemic)
Result :: 6.80

Query :: What value of pIC50 has been reported for the following compound? `CNc1cc(Nc2cccn(-c3cc(C)n(C)n3)c2=O)nn2c(C(=O)NC3CC3)cnc12`
Result :: 7.52

Value sought for every listed compound: pIC50.
1. CNc1cc(Nc2cccn(-c3ccc(F)cn3)c2=O)nn2c(C(=O)N[C@@H]3C[C@@H]3F)cnc12
2. CNc1cc(Nc2cccn(-c3ccn(C)n3)c2=O)nn2c(C(=O)N[C@@H]3C[C@@H]3F)cnc12
3. CNc1cc(Nc2cccn(C3CC3)c2=O)nn2c(C(=O)NC3(C#N)CC3)cnc12
4. CCC(CC)NC(=O)c1cnc2c(NC)cc(Nc3cccn(-c4ccc(C)nn4)c3=O)nn12
5. CNc1cc(Nc2cccn(-c3cnc(C)cn3)c2=O)nn2c(C(=O)N[C@@H]3C[C@@H]3F)cnc12

Result ::
1: 7.52; 2: 7.40; 3: 6.70; 4: 6.55; 5: 7.70

====

For each entry below, report its pIC50 value.
# Test system: IFNα-stimulated Kit225 T cells with STAT-dependent luciferase reporter
# ASSAY_INFO: Kit225 T cell assay, STAT-dependent luciferase reporter, IFNα stimulated
# Format: cell-based, human
# EXPERIMENTAL_CONTEXT: Homo sapiens, KIT225, 200 U/mL human recombinant IFNα, 5-6 hours, read-out: IFNa Kit225 Reporter, LE (IC50)
Answers are plain numbers, as −log10 of the molar value.

Solved entries (count: 5):
Query :: Enter reported pIC50 observed with IFNα-stimulated Kit225 T cells with STAT-dependent luciferase reporter for `CNc1cc(Nc2cccn(-c3ccc(CO)cn3)c2=O)nn2c(C(=O)NC3CC3)cnc12`
Result :: 6.35

Query :: Enter reported pIC50 observed with IFNα-stimulated Kit225 T cells with STAT-dependent luciferase reporter for `CNc1cc(Nc2cccn(-c3ccc(C(F)(F)F)cc3)c2=O)nn2c(C(=O)NCC3(CO)CC3)cnc12`
Result :: 6.70

Query :: Enter reported pIC50 observed with IFNα-stimulated Kit225 T cells with STAT-dependent luciferase reporter for `CNc1cc(Nc2cc(F)cn(-c3ccc(C)nn3)c2=O)nn2c(C(=O)NC3CCC3)cnc12`
Result :: 7.52

Query :: Enter reported pIC50 observed with IFNα-stimulated Kit225 T cells with STAT-dependent luciferase reporter for `CNc1cc(Nc2cccn(C)c2=O)nn2c(C(=O)NCC3CCC3)cnc12`
Result :: 6.09

Query :: Enter reported pIC50 observed with IFNα-stimulated Kit225 T cells with STAT-dependent luciferase reporter for `CNc1cc(Nc2cccn(-c3cnc(C(=O)N(C)C)cn3)c2=O)nn2c(C(=O)N[C@@H]3C[C@@H]3F)cnc12`
Result :: 8.01

Value sought for every listed compound: pIC50.
1. CNc1cc(Nc2cccn(-c3ccc(C(F)(F)F)cc3)c2=O)nn2c(C(=O)NCC(C)(CO)CO)cnc12
2. CNc1cc(Nc2cccn(-c3nccc(C(F)(F)F)n3)c2=O)nn2c(C(=O)NC3CCC3)cnc12
3. CNc1cc(Nc2cccn(-c3ccc(S(C)(=O)=O)cc3)c2=O)nn2c(C(=O)NC3CC3)cnc12

Result ::
1: 6.49; 2: 6.82; 3: 6.48

====

# System: IL-23-stimulated Kit225 T cells with STAT-dependent luciferase reporter
# ASSAY_INFO: Kit225 T cell assay, STAT-dependent luciferase reporter, IL-23 stimulated
# Format: cell-based, human
# EXPERIMENTAL_CONTEXT: Homo sapiens, KIT225, 20 ng/mL human recombinant IL-23, 5-6 hours, read-out: IL-23 Kit225 Reporter, LE (IC50)
For each entry below, report its pIC50 value.
Give bare numbers, as −log10 of the molar value.

Solved entries (count: 5):
Query :: Enter reported pIC50 observed with IL-23-stimulated Kit225 T cells with STAT-dependent luciferase reporter for CNc1cc(Nc2cccn(-c3ccc(C(=O)N4CCCC4)cn3)c2=O)nn2c(C(=O)N[C@@H]3C[C@@H]3F)cnc12 [compound 265]
Result :: 7.40

Query :: Enter reported pIC50 observed with IL-23-stimulated Kit225 T cells with STAT-dependent luciferase reporter for CNc1cc(Nc2cccn(C3CCN(C(=O)C4(C(F)(F)F)CC4)CC3)c2=O)nn2c(C(=O)NC3CC3)cnc12 [Example 246]
Result :: 6.70

Query :: Enter reported pIC50 observed with IL-23-stimulated Kit225 T cells with STAT-dependent luciferase reporter for CNc1cc(Nc2cccn(-c3ccccc3)c2=O)nn2c(C(=O)NC(CO)CCl)cnc12 (stereo not shown) [Example 4]
Result :: 6.28

Query :: Enter reported pIC50 observed with IL-23-stimulated Kit225 T cells with STAT-dependent luciferase reporter for CNc1cc(Nc2cccn(-c3cccc(C#N)c3)c2=O)nn2c(C(=O)NC3CC3)cnc12 [Example 126]
Result :: 6.52

Query :: Enter reported pIC50 observed with IL-23-stimulated Kit225 T cells with STAT-dependent luciferase reporter for CNc1cc(Nc2cccn(-c3cccc(F)n3)c2=O)nn2c(C(=O)N[C@@H]3CCOC3)cnc12 [Example 61]
Result :: 6.68

Value sought for every listed molecule: pIC50.
1. CNc1cc(Nc2cccn(-c3cnccn3)c2=O)nn2c(C(=O)NC3CCC(O)C3(C)C)cnc12 (stereo not shown) [compound 259]
2. CNc1cc(Nc2cccn(-c3cccnn3)c2=O)nn2c(C(=O)NC(C)C)cnc12 [Example 106]

Result ::
1: 6.21; 2: 6.74

====

For each entry below, report its EC50 value.
# MEASURED_TARGET: His-tagged protein corresponding to amino acids 575-869 of human Tyk2 (Homo sapiens)
# Sequence (P29597 with tags, fused parts or gaps): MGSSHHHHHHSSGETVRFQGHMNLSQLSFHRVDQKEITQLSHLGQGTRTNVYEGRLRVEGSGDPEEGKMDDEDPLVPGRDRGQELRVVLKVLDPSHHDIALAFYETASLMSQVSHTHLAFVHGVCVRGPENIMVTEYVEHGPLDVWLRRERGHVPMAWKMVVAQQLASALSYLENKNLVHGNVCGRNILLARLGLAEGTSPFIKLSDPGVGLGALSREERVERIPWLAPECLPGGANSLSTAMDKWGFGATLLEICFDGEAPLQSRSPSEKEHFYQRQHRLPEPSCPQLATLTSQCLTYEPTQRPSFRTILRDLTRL
# ASSAY_INFO: Probe displacement assay (scintillation proximity, radiolabeled probe)
# EXPERIMENTAL_CONTEXT: 2.5 nM Tyk2 (575-869), 40 nM [3H] probe, 30 minutes at room temperature
Answers are plain numbers, in nM.

Solved entries (count: 5):
Query :: What value of EC50 has been reported for the following molecule? CNc1cc(Nc2cccn(-c3cccc(C(C)O)n3)c2=O)nn2c(C(=O)NC3CC3)cnc12 (stereo not shown) [Example 85]
Result :: 5

Query :: What value of EC50 has been reported for the following molecule? CCC(CC)CNC(=O)c1cnc2c(NC)cc(Nc3cccn(-c4ccccc4)c3=O)nn12 [Example 187]
Result :: 29

Query :: What value of EC50 has been reported for the following molecule? CNc1cc(Nc2cccn(-c3cnccn3)c2=O)nn2c(C(=O)NCC(C)(C)CO)cnc12 [Example 109]
Result :: 4

Query :: What value of EC50 has been reported for the following molecule? CNc1cc(Nc2cccn(-c3ccc(C(F)(F)F)cc3)c2=O)nn2c(C(=O)NCC(C)(C)CO)cnc12 [Example 136]
Result :: 11

Query :: What value of EC50 has been reported for the following molecule? CNc1cc(Nc2cccn(-c3ccccn3)c2=O)nn2c(C(=O)NCC(C)(C)CO)cnc12 [Example 197]
Result :: 16

Value sought for every listed molecule: EC50.
1. CNc1cc(Nc2cccn(-c3cc(C)n(C)n3)c2=O)nn2c(C(=O)NC3CCC3)cnc12 [Example 155]
2. CNc1cc(Nc2cccn(-c3ccccn3)c2=O)nn2c(C(=O)NCCF)cnc12 [Example 101]
3. CNc1cc(Nc2cccn(-c3ccc(C(F)(F)F)cc3)c2=O)nn2c(C(=O)NCC3(CO)CC3)cnc12 [Example 133]
4. CC[C@@H](C)NC(=O)c1cnc2c(NC)cc(Nc3cccn(-c4ccn(C)n4)c3=O)nn12 [Example 79]
5. CNc1cc(Nc2cccn(-c3cccc(C#N)c3)c2=O)nn2c(C(=O)NC3CC3)cnc12 [Example 126]

Result ::
7
12
19
6
8

Value sought for every listed molecule: EC50.
1. CNc1cc(Nc2cccn(-c3nccs3)c2=O)nn2c(C(=O)NC3CC3)cnc12 [Example 35]
2. CNc1cc(Nc2cccn(-c3ccc(N4CCOCC4)cc3)c2=O)nn2c(C(=O)NC3(C#N)CC3)cnc12 [Example 140]
3. CNc1cc(Nc2cccn(-c3ccccc3)c2=O)nn2c(C(=O)N[C@H]3CCCC[C@H]3O)cnc12 [Example 188]

Result ::
1. 5
2. 14
3. 21
